B1: Chromodomain-helicase-DNA-binding protein 3, residues 374 to 426; numbered along this chain, Q12873 (parent)
chain: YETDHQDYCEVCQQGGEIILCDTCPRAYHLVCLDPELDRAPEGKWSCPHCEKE

Variants of: B1
Assay: abundance fitness (aPCA) (normalised: wild type 0, dead -1); higher = more abundant; growth selection in yeast, the domain comes from the species named
Settings: Homo sapiens
Classification scheme (abundance fitness): low group = under -0.3, middle group = from -0.3 up to -0.09, high group = -0.09 and over

E17P : low group
C24D : low group
C12W : low group
G15D : middle group

Ask: Form field 'band' for H29P
Reply: low group

Ask: Kindly state the category for this variant: G16D
Reply: high group

Ask: In plain terms, what class is Q14S ?
Reply: middle group

Ask: Determine which band this variant sits in: C24Y
Reply: low group

Ask: Which bin should I file I18F under?
Reply: high group

Ask: Using the reported abundance fitness, which band applies to D38T ?
Reply: middle group

Ask: Could you place D34M in its proper category? Many thanks.
Reply: low group

Ask: Hey, which category is Q6Y in, do you know?
Reply: middle group

Ask: Which bin should I file D38P under?
Reply: middle group
